- Run description: protein stability index of a GFP-peptide fusion (GPS, HEK-293T) (PSI 1-6); higher = more stable;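 also: 24-mer peptide tiles fused after GFP, lentivirally expressed, FACS-sorted into six equal bins by GFP/DsRed ratio, decoded by Illumina sequencing, PSI is the read-weighted mean bin number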
- Condition details: treatment: MLN4924 1 uM, 8 h; c terminus: a fixed tail appended
Catalogue of protein stability index values
Readout kind: protein stability index

1) TRQLSEENANLQEYVEKETQEKKR [MTUS2]
5.56
2) IAAATSVLKTRFSYAFPKEFPYRM [CCNC]
2.58
3) KPKPPPNSEGEQGPNGSQNSSYSQ [CCNC]
5.55
4) MVFIAGILLNGVSGWIFFYVPSSE [P2RY14]
2.84
5) IEARRRALKRFVNLVARHPLFSED [SNX8]
2.61
6) LWCANILGYAVSTFAMVKGYFFPT [DHCR7]
3.83
7) RAYFMSDTREEKRFLGEGHHRVQE [CHGB]
3.89
8) MSSIICEGDTVSQELLDTVLVNLV [PDS5B]
2.14
9) MPEYRGQGIGSKIIKKVAEVALDK [SAT2]
4.05
10) TLFQTESPQSGSILTEETEVKGTL [PBXIP1]
4.7
11) RQKEVDFCISLLRERFMECLMIGR [INTS3]
2.28
12) ILVTKVEEPSKYGVVVCEADTGRI [GMPPB]
2.91
13) SLCKVFGAHKDCQVAPLTHVFQRQ [TRIM55]
2.66
